- TESTED SYSTEM: NADPH oxidase 4 (Homo sapiens)
- TEST METHOD NOTES: NOX4-dependent H2O2 signal modulators, primary screen, NOX inhibitor project, cell-based, HEK293-NOX4, tetracycline-induced, Amplex Red fluorescence (AID 1160)
- CONDITION LABEL: 45 min, higher = more signal, called active from +8 up or from −8 down
Activity calls are given as the source filed them.
Each entry below lists one item and its recorded z-score value.

COMPOUND	TESTED SYSTEM	z-score
O=C1O[C@H](c2ccccc2)[C@H](c2ccccc2)N2[C@H]1[C@@H](C(=O)Nc1nc3ccccc3s1)[C@]1(C(=O)Nc3ccc(C#CC4(O)CCCCCC4)cc31)[C@H]2c1ccccc1OCCO	NADPH oxidase 4 (Homo sapiens)	0.578 (inactive)
COCCOC(=O)N1C(=O)[C@@]2(c3cc(C#CC4=CCCCC4)ccc31)[C@H](c1ccc(OCCO)cc1)N1[C@H](c3ccccc3)[C@H](c3ccccc3)OC(=O)[C@H]1[C@@H]2C(=O)NC[C@H](O)c1ccccc1	NADPH oxidase 4 (Homo sapiens)	0.849 (inactive)
COCCCNC(=O)[C@@]1(Cc2ccccc2CN=[N+]=[N-])N=C(c2ccc(OCCCO)cc2)O[C@H]1c1ccccc1	NADPH oxidase 4 (Homo sapiens)	-0.298 (inactive)
O=C1NC(=O)C2C1C=CC(C(O)c1ccco1)N2Nc1ccccn1 (stereo not drawn)	NADPH oxidase 4 (Homo sapiens)	-2.89 (inactive)
C#CCN([C@@H](Cc1ccc(O)cc1)C(=O)OC)[C@@H](/C=C/C1CC1)[C@H](O)Cc1ccccc1	NADPH oxidase 4 (Homo sapiens)	-0.606 (inactive)
O=c1n(-c2ccccc2)c(=O)n2n1CC(COc1ccccc1)=C([C@H](O)CCc1ccccc1)[C@@H]2CO	NADPH oxidase 4 (Homo sapiens)	-0.265 (inactive)
COc1ccc(CN(C2=CC[C@@]3(C(N)=O)C(=O)C(Cl)=C(Cl)C(=O)[C@@]3(C#N)C2)S(=O)(=O)c2ccc(Br)cc2)cc1	NADPH oxidase 4 (Homo sapiens)	-0.275 (inactive)
COc1ccc(CCNC(=O)[C@@H]2c3ccccc3C(=O)N(Cc3cc(C(F)(F)F)cc(C(F)(F)F)c3)[C@H]2c2ccc(CO)cc2)cc1	NADPH oxidase 4 (Homo sapiens)	0.194 (inactive)
Cc1cc(C)c(C(O)C2C=CC3C(=O)NC(=O)C3N2Nc2ccc(Cl)cc2Cl)c(C)c1 (stereo not drawn)	NADPH oxidase 4 (Homo sapiens)	-4.94 (inactive)
O=C1O[C@H](c2ccccc2)[C@H](c2ccccc2)N2[C@H]1[C@@H](C(=O)NC[C@H](O)c1ccccc1)[C@]1(C(=O)Nc3ccc(C#CCCO)cc31)[C@H]2c1ccc(OCCO)cc1	NADPH oxidase 4 (Homo sapiens)	0.861 (inactive)
O=C(N1CCCCC1)[C@@]1(CCS(=O)(=O)c2ccccc2)COC(c2ccc(OCCCO)cc2)=N1	NADPH oxidase 4 (Homo sapiens)	0.675 (inactive)
COCCOC(=O)N1C(=O)[C@@]2(c3cc(C#CC4(O)CCCCCC4)ccc31)[C@H](c1ccc(O)cc1)N1[C@H](c3ccccc3)[C@H](c3ccccc3)OC(=O)[C@H]1[C@@H]2C(=O)NC[C@H](O)c1ccccc1	NADPH oxidase 4 (Homo sapiens)	0.895 (inactive)
COCCCNC(=O)[C@@]1(Cc2ccccc2N=[N+]=[N-])N=C(c2ccc(OCCCO)cc2)O[C@H]1c1ccccc1	NADPH oxidase 4 (Homo sapiens)	-0.374 (inactive)
Cc1ccc(S[C@]2(C(=O)NCCCN(C)C)CC(=O)N(C3CCCCC3)[C@@H]2c2ccc(CO)cc2)cc1	NADPH oxidase 4 (Homo sapiens)	-2.06 (inactive)
CCCNC(=O)[C@@]1(c2ccc([N+](=O)[O-])cc2)CC(=O)N(C2CCCCC2)[C@@H]1c1ccc(CO)cc1	NADPH oxidase 4 (Homo sapiens)	0.901 (inactive)
CN(C)CCCCNC(=O)[C@@H]1C[C@@H]2C(=O)N[C@@H](Cc3ccccc3)C(=O)N2[C@@H]1c1cccc(OCCO)c1	NADPH oxidase 4 (Homo sapiens)	0.74 (inactive)
C=CCN1Cc2ccccc2[C@H]2OC(c3ccc(OCCCO)cc3)=N[C@@]2(CC=C)C1=O	NADPH oxidase 4 (Homo sapiens)	0.367 (inactive)
O=C1O[C@@H](c2ccccc2)[C@@H](c2ccccc2)N2[C@@H](c3ccc(O)cc3)[C@]3(C(=O)Nc4ccc(C#CC5=CCCCC5)cc43)[C@@H](C(=O)NC[C@H](O)c3ccccc3)[C@H]12	NADPH oxidase 4 (Homo sapiens)	0.53 (inactive)
O=C(CS)NCCCCCCNC(=O)[C@H]1C[C@H]2C(=O)N[C@@H](Cc3ccccc3)C(=O)N2[C@H]1c1ccc(O)cc1	NADPH oxidase 4 (Homo sapiens)	-0.0574 (inactive)
COC(=O)C1=CC(CCCO)=CC(C2CC2)N(C)C=C1C(=O)OC (stereo not drawn)	NADPH oxidase 4 (Homo sapiens)	-0.122 (inactive)
COc1ccc([Si](C)(C)[C@H]2[C@H](CC(=O)N(CCO)Cc3ccccc3)O[C@@]3(C(=O)N(Cc4cccc(N5CCOC5=O)c4)c4ccccc43)[C@@H]2C)cc1	NADPH oxidase 4 (Homo sapiens)	0.7 (inactive)
COC(=O)Cn1c(C(=O)N(C)C)cc2c1C[C@H]1CN(C(=O)c3ccccc3)[C@@](Cc3ccc(F)cc3)(C(=O)OC)[C@@H]21	NADPH oxidase 4 (Homo sapiens)	-0.765 (inactive)
COC(=O)c1c2oc(c1C(=O)OC)C(=O)N(Cc1ccccc1)Cc1cn(nn1)C[C@H](Cc1ccccc1)NC(=O)N[C@H](CO)CC2	NADPH oxidase 4 (Homo sapiens)	1.06 (inactive)
CN1C(=O)C2C=CC(C(O)c3cccc(O)c3)N(Nc3ccccc3)C2C1=O (stereo not drawn)	NADPH oxidase 4 (Homo sapiens)	-5.27 (inactive)
CC[C@H]1C2=C3C(CC[C@H]4C(OCc5ccc(F)cc5C(F)(F)F)OC[C@](C)([C@@H]34)N(C(=O)OC(C)(C)C)C2)C(COC)C1COC (stereo partly drawn)	NADPH oxidase 4 (Homo sapiens)	-1.45 (inactive)
CN1C(=O)C2C=CC(C(O)c3ccccn3)N(N(c3ccccc3)c3ccccc3)C2C1=O (stereo not drawn)	NADPH oxidase 4 (Homo sapiens)	-1.94 (inactive)
O=C1O[C@@H](c2ccccc2)[C@@H](c2ccccc2)N2[C@@H](c3ccccc3OCCO)[C@]3(C(=O)Nc4ccc(C#CCCO)cc43)[C@@H](C(=O)N3CCCCCCC3)[C@H]12	NADPH oxidase 4 (Homo sapiens)	0.486 (inactive)
COC(=O)c1c(CC[C@@H](CO)NC(=O)N2CCC[C@H]2Cn2cc(Cc3ccccc3)nn2)oc(C(C)=O)c1C(=O)OC	NADPH oxidase 4 (Homo sapiens)	-0.894 (inactive)
